TEST_SYSTEM: HDAC 7 (Homo sapiens, UniProt Q8WUI4)
Sequence (Q8WUI4 1-952): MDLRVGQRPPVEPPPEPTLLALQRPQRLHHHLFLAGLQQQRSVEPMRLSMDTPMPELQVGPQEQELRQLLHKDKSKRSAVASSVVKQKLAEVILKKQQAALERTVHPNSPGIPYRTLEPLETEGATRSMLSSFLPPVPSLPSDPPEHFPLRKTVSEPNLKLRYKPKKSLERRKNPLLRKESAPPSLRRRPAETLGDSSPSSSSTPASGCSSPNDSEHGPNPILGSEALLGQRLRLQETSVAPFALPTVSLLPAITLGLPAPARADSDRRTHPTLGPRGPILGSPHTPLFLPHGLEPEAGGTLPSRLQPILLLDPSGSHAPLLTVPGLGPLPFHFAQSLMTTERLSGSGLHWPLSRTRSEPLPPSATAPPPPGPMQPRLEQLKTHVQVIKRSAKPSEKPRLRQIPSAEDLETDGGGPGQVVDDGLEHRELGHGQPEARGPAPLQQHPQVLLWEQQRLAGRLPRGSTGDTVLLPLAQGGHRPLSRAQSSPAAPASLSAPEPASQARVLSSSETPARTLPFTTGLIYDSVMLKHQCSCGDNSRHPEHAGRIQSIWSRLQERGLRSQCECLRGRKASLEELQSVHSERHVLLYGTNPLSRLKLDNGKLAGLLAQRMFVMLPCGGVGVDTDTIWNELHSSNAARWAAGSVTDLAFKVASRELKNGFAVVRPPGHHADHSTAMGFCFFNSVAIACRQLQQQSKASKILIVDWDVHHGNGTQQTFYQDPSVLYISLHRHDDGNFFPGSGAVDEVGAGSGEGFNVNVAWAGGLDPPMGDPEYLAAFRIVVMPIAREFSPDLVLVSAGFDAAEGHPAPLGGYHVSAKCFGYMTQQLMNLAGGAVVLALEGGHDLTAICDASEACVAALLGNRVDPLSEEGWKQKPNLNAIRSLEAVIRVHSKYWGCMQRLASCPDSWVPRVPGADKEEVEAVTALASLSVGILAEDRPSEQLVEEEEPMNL
pIC50: −log10 of the molar value.

| ITEM_SMILES | pIC50 |
| --- | --- |
| O=C(NO)c1ccc(CN(C(=O)N2CCOCC2)c2cccc(C(F)(F)F)c2)cc1 | 5.28 |

====

TEST_SYSTEM: HDAC1 (Homo sapiens, UniProt Q13547)
Sequence (Q13547 whole entry): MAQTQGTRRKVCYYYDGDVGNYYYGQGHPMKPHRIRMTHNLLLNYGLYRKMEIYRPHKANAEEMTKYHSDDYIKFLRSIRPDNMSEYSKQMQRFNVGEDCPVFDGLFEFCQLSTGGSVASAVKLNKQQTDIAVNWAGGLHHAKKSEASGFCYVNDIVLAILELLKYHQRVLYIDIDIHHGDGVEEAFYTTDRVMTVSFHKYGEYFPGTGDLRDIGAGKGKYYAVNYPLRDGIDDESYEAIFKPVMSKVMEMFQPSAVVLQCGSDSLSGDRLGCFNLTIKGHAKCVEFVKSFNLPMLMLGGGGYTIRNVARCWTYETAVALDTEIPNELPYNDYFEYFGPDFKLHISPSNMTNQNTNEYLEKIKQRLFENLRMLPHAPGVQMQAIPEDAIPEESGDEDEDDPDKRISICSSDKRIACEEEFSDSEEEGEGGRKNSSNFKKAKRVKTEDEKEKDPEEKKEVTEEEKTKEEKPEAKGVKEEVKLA
PROTOCOL_TEXT: Test of HDAC activities, HDAC1 Fluorimetric Drug Discovery Assay Kit
Type: biochemical
Parameters: purchased Enzolifesciences BML-AK511
SETUP_CONDITIONS: samples at 100, 1000, 10000 nM; 37° C. 60 minutes; fluorescence Ex 390, Em 460; read-out: HDAC inhibitory activities, HDAC1
ENDPOINT: IC50 (µM)

| COMPOUND | TEST_SYSTEM | ENDPOINT | NUMERIC_VALUE |
| --- | --- | --- | --- |
| O=C(NO)c1ccc(CN(C(=O)N2CC(F)(F)C2)c2ccc(C(F)(F)F)cc2)cc1 | HDAC1 (Homo sapiens, UniProt Q13547) | IC50 | 0.86 |
| O=C(NO)c1ccc(CN(C(=O)N2CCN(C(c3ccccc3)c3ccccc3)CC2)c2cccc(C(F)(F)F)c2)cc1 | HDAC1 (Homo sapiens, UniProt Q13547) | IC50 | 8.54 |
| CN1CCN(C(=O)N(Cc2ccc(C(=O)NO)cc2)c2ccccn2)CC1 | HDAC1 (Homo sapiens, UniProt Q13547) | IC50 | 4.53 |
| CC(C)(C)OC(=O)N1CCC(c2cccc(N(Cc3ccc(C(=O)NO)cc3)C(=O)N3CCOCC3)c2)CC1 | HDAC1 (Homo sapiens, UniProt Q13547) | IC50 | 1.22 |
| O=C(NO)c1ccc(CN(C(=O)N2CCOCC2)c2ccc(Cl)c(C(F)(F)F)c2)cc1 | HDAC1 (Homo sapiens, UniProt Q13547) | IC50 | 2.12 |
| CC1CN(C(=O)N(Cc2ccc(C(=O)NO)cc2)c2cccc(-c3ccc4c(c3)OCO4)c2)CC(C)O1 (stereo not shown) | HDAC1 (Homo sapiens, UniProt Q13547) | IC50 | 1.17 |
| O=C(NO)c1ccc(CN(C(=O)N2CCN(c3ccc(F)cc3)CC2)c2ccccn2)cc1 | HDAC1 (Homo sapiens, UniProt Q13547) | IC50 | 3.28 |
| O=C(NO)c1ccc(CN(C(=O)N2CCOCC2)c2cccc(C(F)(F)F)c2)c(F)c1 | HDAC1 (Homo sapiens, UniProt Q13547) | IC50 | 0.577 |
| O=C(NO)c1ccc(CN(C(=O)N2CCOCC2)c2ccc(F)c(Cl)c2)cc1 | HDAC1 (Homo sapiens, UniProt Q13547) | IC50 | 0.474 |
| Cc1ccc(N(Cc2ccc(C(=O)NO)cc2)C(=O)N2CCOCC2)c(F)c1 | HDAC1 (Homo sapiens, UniProt Q13547) | IC50 | 0.632 |
| Cn1ncc2cc(-c3cccc(N(Cc4ccc(C(=O)NO)cc4)C(=O)N4CCOCC4)c3)ccc21 | HDAC1 (Homo sapiens, UniProt Q13547) | IC50 | 0.151 |
| O=C(NO)c1ccc(CN(C(=O)N2CCN(CCO)CC2)c2cccc(-c3ccc4c(c3)OCO4)c2)cc1 | HDAC1 (Homo sapiens, UniProt Q13547) | IC50 | 0.24 |
| O=C(NO)c1ccc(CN(C(=O)N2CCC(O)CC2)c2cccc(Br)c2)c(F)c1 | HDAC1 (Homo sapiens, UniProt Q13547) | IC50 | 1.17 |
| O=C(NO)c1ccc(CN(C(=O)N2CCC[C@H]2CO)c2cccc(-c3ccc4c(c3)OCO4)c2)cc1 | HDAC1 (Homo sapiens, UniProt Q13547) | IC50 | 5.34 |
| O=C(NO)c1ccc(CN(C(=O)N2CCC[C@@H]2CO)c2cccc(C(F)(F)F)c2)cc1 | HDAC1 (Homo sapiens, UniProt Q13547) | IC50 | 0.936 |
| CCN1CCN(C(=O)N(Cc2ccc(C(=O)NO)cc2)c2ccc(Cl)c(C(F)(F)F)c2)CC1 | HDAC1 (Homo sapiens, UniProt Q13547) | IC50 | 2.59 |

====

TEST_SYSTEM: HDAC 6 (Homo sapiens)
Sequence (Q9UBN7 whole entry): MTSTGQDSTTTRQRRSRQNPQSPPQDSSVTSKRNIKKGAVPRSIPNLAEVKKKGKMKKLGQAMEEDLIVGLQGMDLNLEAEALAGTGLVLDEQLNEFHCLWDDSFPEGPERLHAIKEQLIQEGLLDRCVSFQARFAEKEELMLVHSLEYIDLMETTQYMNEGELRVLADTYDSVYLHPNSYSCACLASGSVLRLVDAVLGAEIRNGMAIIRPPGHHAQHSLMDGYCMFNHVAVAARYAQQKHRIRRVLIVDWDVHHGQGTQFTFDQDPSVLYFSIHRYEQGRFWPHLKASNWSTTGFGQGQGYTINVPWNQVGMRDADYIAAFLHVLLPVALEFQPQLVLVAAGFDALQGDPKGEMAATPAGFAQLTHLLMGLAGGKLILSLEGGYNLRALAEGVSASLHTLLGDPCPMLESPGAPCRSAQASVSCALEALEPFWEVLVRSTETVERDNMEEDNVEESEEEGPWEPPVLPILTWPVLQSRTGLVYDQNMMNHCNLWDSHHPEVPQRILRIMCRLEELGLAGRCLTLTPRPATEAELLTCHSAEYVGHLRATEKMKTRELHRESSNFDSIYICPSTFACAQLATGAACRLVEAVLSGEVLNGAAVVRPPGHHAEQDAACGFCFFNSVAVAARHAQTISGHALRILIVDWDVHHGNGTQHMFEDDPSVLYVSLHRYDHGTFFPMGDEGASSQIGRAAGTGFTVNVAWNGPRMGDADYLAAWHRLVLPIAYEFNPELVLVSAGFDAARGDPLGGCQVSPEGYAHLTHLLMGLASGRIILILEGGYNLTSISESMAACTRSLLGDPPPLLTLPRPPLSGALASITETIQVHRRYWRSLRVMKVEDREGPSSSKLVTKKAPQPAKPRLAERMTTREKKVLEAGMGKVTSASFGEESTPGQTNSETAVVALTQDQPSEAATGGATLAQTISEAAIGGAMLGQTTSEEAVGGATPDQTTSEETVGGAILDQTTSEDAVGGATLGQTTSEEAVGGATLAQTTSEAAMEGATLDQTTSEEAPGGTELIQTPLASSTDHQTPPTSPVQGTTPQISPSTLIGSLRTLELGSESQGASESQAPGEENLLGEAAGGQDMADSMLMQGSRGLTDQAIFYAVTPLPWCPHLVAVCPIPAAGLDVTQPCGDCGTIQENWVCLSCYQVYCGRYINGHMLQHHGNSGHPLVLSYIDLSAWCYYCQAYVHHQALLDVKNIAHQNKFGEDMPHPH
PROTOCOL_TEXT: Test of HDAC activities, HDAC6 (fluorimetric)
Format: biochemical
Set-up: purchased Calbiochem 382180
SETUP_CONDITIONS: samples at 0.1, 1, 10, 100, 1000 nM; 37° C. 60 minutes; fluorescence Ex 390, Em 460; read-out: HDAC inhibitory activities, HDAC6
Known IC50 of a selection of compounds

| ITEM_SMILES | IC50, nM |
| --- | --- |
| O=C(NO)c1ccc(CN(C(=O)N2CCOCC2)c2cccc(C3=CCOCC3)c2)c(F)c1 | 14 |
| O=C(NO)c1ccc(CN(C(=O)N2CCOCC2)c2ccc(F)c(Cl)c2)cc1 | 1 |
| O=C(NO)c1ccc(CN(C(=O)N2CCOCC2)c2ncccn2)cc1 | 7 |
| O=C(NO)c1ccc(CN(C(=O)N2CCOCC2)c2cccc(-c3cncnc3)c2)cc1 | 14 |
| CN1CCN(C(=O)N(Cc2ccc(C(=O)NO)cc2)c2ccc(F)c(Cl)c2)CC1 | 9 |
| CCN1CCN(C(=O)N(Cc2ccc(C(=O)NO)cc2)c2ccc(Cl)c(C(F)(F)F)c2)CC1 | 11 |
| O=C(NO)c1ccc(CN(C(=O)N2CCC(O)CC2)c2cccc(-c3ccc4c(c3)OCO4)c2)cc1 | 3 |
| CN1CCN(C(=O)N(Cc2ccc(C(=O)NO)cc2)c2ccc(F)cc2F)CC1 | 2 |

====

TEST_SYSTEM: HDAC1 (Homo sapiens)
PROTOCOL_TEXT: Test of HDAC activities, HDAC1 Fluorimetric Drug Discovery Assay Kit
Assay type: biochemical
Parameters: purchased Enzolifesciences BML-AK511
SETUP_CONDITIONS: samples at 100, 1000, 10000 nM; 37° C. 60 minutes; fluorescence Ex 390, Em 460; read-out: HDAC inhibitory activities, HDAC1
pIC50: −log10 of the molar value.
ENDPOINT: pIC50

| ITEM_SMILES | NUMERIC_VALUE |
| --- | --- |
| O=C(NO)c1ccc(CN(C(=O)N2CC[C@@H](F)C2)c2ccc(C(F)(F)F)cc2)cc1 | 5.93 |
| CC(=O)N1CCC(c2cccc(N(Cc3ccc(C(=O)NO)cc3)C(=O)N3CCOCC3)c2)CC1 | 6.15 |
| CCN1[C@H](C)CN(C(=O)N(Cc2ccc(C(=O)NO)cc2)c2cccc(C(F)(F)F)c2)C[C@@H]1C | 5.80 |
| O=C(NO)c1ccc(CN(C(=O)N2CCCCC2)c2ccc(F)cc2F)cc1 | 5.93 |

====

TEST_SYSTEM: HDAC1 (Homo sapiens, UniProt Q13547)
PROTOCOL_TEXT: Test of HDAC activities, HDAC1 Fluorimetric Drug Discovery Assay Kit
Type: biochemical
Parameters: purchased Enzolifesciences BML-AK511
SETUP_CONDITIONS: samples at 100, 1000, 10000 nM; 37° C. 60 minutes; fluorescence Ex 390, Em 460; read-out: HDAC inhibitory activities, HDAC1
Procedure: The HDAC inhibitory activities of test materials were measured using the HDAC1 Fluorimetric Drug Discovery Assay Kit (Enzolifesciences: BML-AK511) and HDAC6 human recombinant (Calbiochem: 382180). In the HDAC1 assay, the samples were treated with concentrations of 100, 1000, and 10000 nM, and in the HDAC6 assay, the samples were treated with concentrations of 0.1, 1, 10, 100, and 1000 nM. […] Then, the fluorescence intensity (Ex 390, Em 460) was measured using the FlexStation 3 (Molecular device).
pIC50: −log10 of the molar value. Where a name gives a salt, the structure may show the parent alone.

| MOLECULE | pIC50 |
| --- | --- |
| CC(C)(F)CN1CCN(C(=O)N(Cc2ccc(C(=O)NO)cc2)c2cccc(C(F)(F)F)c2)CC1 [Compound 531] | 5.74 |
| O=C(NO)c1ccc(CN(C(=O)N2CC=C(c3ccccc3)CC2)c2ccccn2)cc1 [Compound 352] | 5.34 |
| O=C(NO)c1ccc(CN(C(=O)N2CCOCC2)c2cccc(C3CCNCC3)c2)cc1 [Compound 493, hydrochloride] | 6.05 |
| O=C(NO)c1ccc(CN(C(=O)N2CCOCC2)c2cccc(-c3cccnc3)c2)cc1 [Compound 262] | 6.79 |
| O=C(NO)c1ccc(CN(C(=O)N2CCCC2)c2cccc(-c3ccc4c(c3)OCO4)c2)cc1 [Compound 468] | 4.91 |
| O=C(NO)c1ccc(CN(C(=O)N2CCOCC2)c2ccc(C(F)(F)F)cc2)c(F)c1 [Compound 577] | 6.00 |
| O=C(NO)c1ccc(CN(C(=O)N2CCC(O)(c3ccccc3)CC2)c2ncccn2)cc1 [Compound 311] | 4.64 |
| O=C(NO)c1ccc(CN(C(=O)N2CCOCC2)c2cccc(-c3ccc4c(c3)OCO4)c2)c(F)c1 [Compound 511] | 6.20 |
